# Tested on: PfSIP2 AP2 domain 1 (GST-tagged)
# ASSAY SUMMARY: gcPBM binding intensity (ln(normalized median fluorescence intensity)); higher = stronger DNA binding
The full ranking holds about 25,000 sequences; the median of “ln(normalized median fluorescence intensity)” is about 7.1, and the highest 2% start at about 10. The sample as a whole holds a higher share of the highest values than the screen did.
ENDPOINT: gcPBM binding intensity (ln)
Give bare numbers.

Here is how some sequences turned out for gcPBM binding intensity (ln).
[[record]]
construct_sequence = "ATAAAACGTACAATGGTGCATATAAATAATATATAT [GTGCAC_site9960]"
target_under_test = "PfSIP2 AP2 domain 1 (GST-tagged)"
test_result = 10.8

[[record]]
construct_sequence = "TTAGCAGGACGTTTGGTGCACGTACTGTTTTTCTTT [GTGCAC_site9856]"
target_under_test = "PfSIP2 AP2 domain 1 (GST-tagged)"
test_result = 10.3

[[record]]
construct_sequence = "TAAGTATATTTCTGCACACAAAAAAAAAAACCAAAA [CACACA_site4056]"
target_under_test = "PfSIP2 AP2 domain 1 (GST-tagged)"
test_result = 7.18

[[record]]
construct_sequence = "GAAATAAAAAGAAATGCATGTAATTTTTTTTTTTTT [TGCATGCA_site928]"
target_under_test = "PfSIP2 AP2 domain 1 (GST-tagged)"
test_result = 6.71

[[record]]
construct_sequence = "GTTACTGCATACATAACACACATATTCAAAACCCAT [CACACA_site5856]"
target_under_test = "PfSIP2 AP2 domain 1 (GST-tagged)"
test_result = 7.13

[[record]]
construct_sequence = "AATCATATTAGTATGGTGCAACATATATAAATATAT"
target_under_test = "PfSIP2 AP2 domain 1 (GST-tagged)"
test_result = 10.8


For each of the items listed, what is its gcPBM binding intensity (ln)?
1. TAATTATAATAATAACGTACATATATAAAATGGTGA [XGTACX_site8434]
2. GAAAATAAAATAAATGCATGTAAATTTAATGTAATG [TGCATGCA_site996]
3. TGTACGAGTCGTAGAGTGCAGTCTGGAGAAAAGTAC [GTGCAC_site9683]
4. CAAAAAAAAAAAAAAACACACATTAAATTATAAAGA [CACACA_site2613]

result:
1: 7.21; 2: 6.87; 3: 8.91; 4: 6.77
